B1: TOR1AIP2 (parent)
chain: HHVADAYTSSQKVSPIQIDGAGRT

Variants of: B1
experimental.protocol: protein stability index of a GFP-peptide fusion (GPS, HEK-293T) (PSI 1-6); higher = more stable;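 further: lentivirally expressed fusions sorted by FACS into six bins by GFP to DsRed ratio, PSI derived from sequencing read proportions per bin multiplied by bin number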
experimental.setup: c terminus: a fixed tail appended
measured.property: protein stability index

> print(dat)
    mutation.notation        measured.property  recorded.number
 1               G22I  protein stability index             3.26
 2                Y7W  protein stability index             2.12
 3               G22D  protein stability index             3.99
 4               T24E  protein stability index                4
 5               P15K  protein stability index             3.33
 6               V13K  protein stability index             3.66
 7                H1W  protein stability index             3.68
 8                H2M  protein stability index             2.81
 9               S14W  protein stability index             2.77
10               I18S  protein stability index             3.72
11                V3C  protein stability index             1.75
12               G22N  protein stability index             3.25
13               I16Y  protein stability index             3.69
14                Y7S  protein stability index             4.87
15                T8M  protein stability index             3.89
16               G20W  protein stability index             2.33
17               G22A  protein stability index             3.58
18               S10H  protein stability index             3.17
19                S9A  protein stability index             2.91
20               G20C  protein stability index             3.19
21               Q11E  protein stability index             3.97
22                H2L  protein stability index             1.86
23               I18V  protein stability index             3.76
24               Q11D  protein stability index             4.26
25               Q11N  protein stability index             3.29
26               Q17L  protein stability index             3.57
27                A4N  protein stability index             4.17
28               K12W  protein stability index             2.72
29                T8E  protein stability index             4.38
30                T8G  protein stability index             3.87
31                A4Q  protein stability index             3.67
32               S10Q  protein stability index             3.24
33               D19W  protein stability index             1.94
34                D5H  protein stability index             2.38
35                V3R  protein stability index             2.95
36               G20M  protein stability index             3.44
37               S10P  protein stability index             3.87
38               S14T  protein stability index             3.22
39                V3S  protein stability index             2.46
40               R23Y  protein stability index             2.94
41               I18W  protein stability index             3.26
42               P15V  protein stability index             3.14
43                T8A  protein stability index             4.09
44                Y7M  protein stability index              4.7
45                D5N  protein stability index             3.33
46                Y7V  protein stability index             4.62
